Target: GalNAc(b1-4)GlcNAc(b1-2)Man(a1-3)[GalNAc(b1-4)GlcNAc(b1-2)Man(a1-6)]Man(b1-4)GlcNAc(b1-4)GlcNAc
Test: glycan array binding signal (z-score within array); higher = stronger binding
Conditions: glycan notation: IUPAC condensed, linker removed
The full list was thinned out, with the strongest signals kept by preference.
RECORDED ENDPOINT: glycan array binding signal (z-score)
Form: value (number only, do not type unit).

BINDER: SP15308F-bth-333-19-333 (Bacteroides thetaiotaomicron) (protein) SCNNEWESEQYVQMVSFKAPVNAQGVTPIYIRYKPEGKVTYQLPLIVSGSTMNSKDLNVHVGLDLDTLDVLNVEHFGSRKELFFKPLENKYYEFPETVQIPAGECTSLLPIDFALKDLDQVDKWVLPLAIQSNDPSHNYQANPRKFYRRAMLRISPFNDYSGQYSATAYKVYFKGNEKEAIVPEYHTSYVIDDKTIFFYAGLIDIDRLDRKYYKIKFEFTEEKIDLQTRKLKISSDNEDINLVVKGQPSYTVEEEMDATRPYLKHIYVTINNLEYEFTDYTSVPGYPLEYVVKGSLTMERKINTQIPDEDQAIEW
NUMERIC READOUT: 1.38

glycan array binding signal (z-score) for Intelectin 1 (Homo sapiens), Q8WWA0 (protein) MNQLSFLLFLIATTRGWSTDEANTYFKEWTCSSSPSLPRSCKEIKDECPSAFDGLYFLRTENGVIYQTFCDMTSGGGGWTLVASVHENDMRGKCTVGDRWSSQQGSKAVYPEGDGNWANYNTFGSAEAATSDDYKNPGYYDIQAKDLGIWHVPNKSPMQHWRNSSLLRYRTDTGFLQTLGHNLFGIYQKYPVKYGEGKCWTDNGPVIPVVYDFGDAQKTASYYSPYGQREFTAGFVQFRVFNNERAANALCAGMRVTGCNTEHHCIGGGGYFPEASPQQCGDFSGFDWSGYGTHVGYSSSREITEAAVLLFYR ?
0.358
